# credit: the NIST ThermoML archive (doi:10.1021/je400205g)

Condition Label: 293.15 K; Liquid; Transpiration method
Experimental Readout: vapor or sublimation pressure (kPa)
# number only, unit kPa dropped from output

{"columns": ["Molecule", "Unit Label", "Value Reported"],
 "data": [
  ["O=C(O)C(F)(F)C(F)(F)C(F)(F)C(F)(F)C(F)(F)F", "kPa", 0.044],
  ["O=C(O)C(F)(F)OC(F)(F)C(F)(F)OC(F)(F)F", "kPa", 0.09288],
  ["OCCCC(F)(F)C(F)(F)C(F)(F)C(F)(F)F", "kPa", 0.05717]
]}

Moving on to another molecule below.
[Q] Reported vapor or sublimation pressure, molecule CCOC(=O)C(F)(F)C(F)(F)C(F)(F)C(F)(F)C(F)(F)C(F)(F)C(F)(F)F [ethyl perfluorooctanoate] : ____
[A] 0.08988
